Source: ChEMBL document CHEMBL4428074

target: UniProt:P23458
Sequence (P23458 whole entry): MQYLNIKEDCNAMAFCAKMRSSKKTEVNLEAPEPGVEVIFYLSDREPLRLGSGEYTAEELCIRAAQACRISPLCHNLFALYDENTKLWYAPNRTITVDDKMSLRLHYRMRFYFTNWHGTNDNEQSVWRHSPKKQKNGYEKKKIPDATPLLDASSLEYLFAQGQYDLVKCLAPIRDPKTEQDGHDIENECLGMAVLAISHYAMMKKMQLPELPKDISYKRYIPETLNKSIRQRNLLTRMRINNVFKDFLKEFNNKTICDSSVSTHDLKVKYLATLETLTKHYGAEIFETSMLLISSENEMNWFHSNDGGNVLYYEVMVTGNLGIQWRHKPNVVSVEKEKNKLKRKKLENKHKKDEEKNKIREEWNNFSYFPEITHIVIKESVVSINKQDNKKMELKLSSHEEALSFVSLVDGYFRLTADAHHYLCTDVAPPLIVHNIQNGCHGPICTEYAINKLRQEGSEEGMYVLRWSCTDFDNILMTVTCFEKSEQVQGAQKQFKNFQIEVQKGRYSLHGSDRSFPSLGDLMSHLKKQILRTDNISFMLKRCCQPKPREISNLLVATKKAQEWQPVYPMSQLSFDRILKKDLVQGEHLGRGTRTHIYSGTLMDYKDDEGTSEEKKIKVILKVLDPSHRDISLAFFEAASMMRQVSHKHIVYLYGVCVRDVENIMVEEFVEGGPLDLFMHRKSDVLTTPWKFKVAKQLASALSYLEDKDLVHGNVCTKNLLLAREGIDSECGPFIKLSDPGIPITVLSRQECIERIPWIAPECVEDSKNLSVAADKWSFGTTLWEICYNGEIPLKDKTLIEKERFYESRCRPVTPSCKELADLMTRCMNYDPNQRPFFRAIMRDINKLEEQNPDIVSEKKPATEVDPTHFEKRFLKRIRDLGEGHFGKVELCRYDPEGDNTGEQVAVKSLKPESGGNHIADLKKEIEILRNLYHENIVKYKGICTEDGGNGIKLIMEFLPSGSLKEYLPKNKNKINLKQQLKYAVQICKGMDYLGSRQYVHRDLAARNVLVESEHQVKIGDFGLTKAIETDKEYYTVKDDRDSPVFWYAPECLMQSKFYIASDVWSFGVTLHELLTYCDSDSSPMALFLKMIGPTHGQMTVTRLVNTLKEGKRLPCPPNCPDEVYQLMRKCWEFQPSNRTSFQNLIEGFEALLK
measurement_label: IC50 (nM)

>>> observed_measurement("Cc1nn(CCCC(F)(F)F)nc1-c1ncnc2[nH]ccc12")
82
>>> observed_measurement("Cc1nn(CCCC#N)nc1-c1ncnc2[nH]ccc12")
72
